# Experiment: Aqueous solubility
# Format: physicochemical
# Protocol conditions: in water at 25° C. and atmospheric pressure
Measured Solubility (wt/wt total) of individual entries

CCCCCCCCOC(=O)C(O)CC[S+](C)[O-] (stereo not drawn) ... >50.0 wt %
CSCCC(O)C(=O)OC(C)C (stereo not drawn) ... 2.5 wt %
CCCCCCCCNC(=O)C(O)CC[S+](C)[O-] (stereo not drawn) ... >50.0 wt %
CCCCOC(=O)C(O)CCSC (stereo not drawn) [Butyl 2-hydroxy-4-(methylthio)butanoate, Butyl 2-Hydroxy-4-(Methylthio)Butanoate] ... 0.9 wt %
CCCCCCOC(=O)C(O)CC[S+](C)[O-] (stereo not drawn) ... >50.0 wt %

Now for the molecule whose Solubility (wt/wt total) we want.
Note to self: Solubility (wt/wt total) recorded for CCCCCCCCCCOC(=O)C(O)CCS(C)(=O)=O (stereo not drawn) was <0.1 wt %
